target: CDK2/cyclin A (Homo sapiens); assay: CDK2 inhibition, Kinase-Glo Luminescent Kinase Assay; details: geometric means of n ⩾ 3 experiments; 10 µM ATP; read-out: IC50 against CDK2
PROPERTY_NAME: IC50 (nM)

Guide cases for IC50, answers given:
> print(dat)
                                   molecule  value.units  measured.result
1  Cl.NCc1ccc(-c2nc(Nc3cccc([N+](=O)[O-])c3)nc3[nH]cnc23)cc1 [Compound 11d]           nM              230
2  CN(C)S(=O)(=O)c1ccc(Nc2nc(-c3cccc(CN)c3)c3nc[nH]c3n2)cc1.Cl [Compound 11q]           nM              180
3  Cl.Nc1cccc(-c2nc(Nc3cccc([N+](=O)[O-])c3)nc3[nH]cnc23)c1 [Compound 11a]           nM              310
4  Cl.NCc1ccc(-c2nc(Nc3ccccc3)nc3[nH]cnc23)cc1 [Compound 11g]           nM              130

(A) O=C(O)c1cccc(-c2nc(Nc3cccc([N+](=O)[O-])c3)nc3[nH]cnc23)c1 [Compound 5g]
(B) NCc1ccc(-c2nc(Nc3ccc(F)cc3)nc3[nH]cnc23)cc1 [Compound 11o]
(C) Cl.NCc1cccc(-c2nc(Nc3ccc(S(N)(=O)=O)cc3)nc3[nH]cnc23)c1 [Compound 11l]
(D) CNS(=O)(=O)c1ccc(Nc2nc(-c3cccc(CN)c3)c3nc[nH]c3n2)cc1.Cl [Compound 11p]
### Prompt List these items ordered by IC50, big to small. The labels, placed in the requested order, form the answer.
### Response B, A, D, C
(B: 240 nM, A: 150 nM, D: 32 nM, C: 19 nM)

Origin of measurements: paper PMC9110766
